# Measurement Target: iNOS (Homo sapiens)
# Measurement Notes: NOS activity: L-[3H]citrulline formation from L-[3H]arginine, iNOS
# Assay type: biochemical
# Condition Summary: Table 2; iNOS; 1 μM L-Arg, pH 7.5, room temperature, 30 minutes; read-out: iNOS (IC50)
Where a name gives a salt, the structure may show the parent alone.

# Compound, IC50
rows = [
    ("Cc1cc(N)ncc1CN [Example 45, dihydrochloride]", "< 10 µM"),
    ("Cc1cc(N)ncc1C(=O)O [Example 43, 2-Amino-5-carboxy-4-methylpyridine]", "> 50 µM"),
    ("CCc1cc(C)cc(N)n1 [Example 54, 2-Amino-6-ethyl-4-methylpyridine]", "< 1 µM"),
    ("CC(=O)NCc1cnc(N)cc1C [Example 46]", "< 10 µM"),
    ("Cc1ccnc(N)c1CO [Example 23, 2-Amino-3-hydroxymethyl-4-picoline]", "< 1 µM"),
    ("Cc1cc(N)nc(CC[C@@H](C)N)c1 [Example 77]", "< 10 µM"),
    ("CC(=O)Nc1cnc(N)cc1C [Example 31, 5-Acetylamino-2-amino-4-picoline]", "< 10 µM"),
    ("CCc1cccc(N)n1 [Example 52, 2-Amino-6-ethylpyridine]", "< 1 µM"),
    ("CCCCCc1cnc(N)cc1C [Example 33, 2-Amino-4-methyl-5-pentyl-pyridine]", "< 50 µM"),
    ("Cc1cc(N)ncc1C#N [Example 42, 2-Amino-5-cyano-4-methylpyridine]", "> 50 µM"),
    ("Cc1cnc(N)cc1C [Example 49, hydrochloride]", "< 1 µM"),
    ("Cc1cc(N)ncc1CO [Example 47, 2-Amino-5-hydroxymethyl-4-methylpyridine]", "< 10 µM"),
    ("COC(=O)c1cnc(N)cc1C [Example 44]", "> 50 µM"),
    ("CCc1c(C)ccnc1N [Example 24, dihydrochloride]", "< 10 µM"),
    ("Nc1ccnc(N)c1 [Example 38, 2,4-Diaminopyridine dihydrochloride]", "< 10 µM"),
    ("Nc1cccc(Cc2ccccc2)n1 [Example 61, 2-Amino-6-benzylpyridine]", "< 50 µM"),
    ("Nc1ncccc1OCC[C@H](N)C(=O)O [Example 48, dihydrochloride]", "< 50 µM"),
    ("Cc1cc(N)nc(C(C)C)c1 [Example 55]", "< 1 µM"),
    ("Nc1nccc2c1CCCC2 [Example 65, 1-Amino-5,6,7,8-tetrahydroisoquinoline]", "< 50 µM"),
    ("Cc1cc(N)nc(CCC(C)C)c1 [Example 71]", "< 1 µM"),
]
